// data source = PubChem BioAssay

# assay details: inhibition of 3D7 malaria parasite growth – strain 3D7 (AID 2306);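 note: 0% = DMSO wells and 100% = chloroquine plus artemisinin control wells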
# run parameters: P. falciparum 3D7 erythrocytic growth, LDH absorbance, 72 h; at 2 µM; stronger effect = higher value
property label: growth inhibition (%)
Numeric only. Scale: %

Solved entries:
{"molecule": "CCOc1ncccc1CN1CCC(N2CCc3cc(NC(=O)c4ccco4)ccc32)C1 (configuration not stated)", "growth inhibition [%]": 90}
{"molecule": "Cc1cccc2[nH]c(-c3ccc(-c4ccc(NC(=O)C(C)CN(C)C)cc4)s3)nc12 (configuration not stated)", "growth inhibition [%]": 100}
{"molecule": "Cc1cc(-c2c[nH]c3ncc(-c4cccc5ncccc45)cc23)ccc1C(=O)O", "growth inhibition [%]": 99}
{"molecule": "O=C(Nc1ccc(C(=O)OC[C@@H]2CCCN3CCCC[C@H]23)cc1)c1ccc(Cl)c(Cl)c1", "growth inhibition [%]": 99}

## Input Give the measured growth inhibition of CCOc1ccc(C(=O)N2CCOC(CCN3CCC4(CCc5ccccc54)CC3)(c3ccc(Cl)c(Cl)c3)C2)cc1 (configuration not stated) .
## Output 81

## Input Requested field: growth inhibition. Item: `Oc1ccc(Cl)cc1-c1cc(C(F)(F)F)nc(-c2ccccc2)n1`
## Output 99

## Input Entry under review: `O=C(NC1CC1)c1cnc(N2CCC(Cc3ccccc3)CC2)c(Cl)c1` . Reported growth inhibition?
## Output 96
